Ref: patent US20210395256A1

Reported half-life at 2 μM values for a set of compounds
test: Liver microsomes metabolic stability assay, mouse; format: in vitro ADME; conditions: male, mouse liver microsomes 0.5 mg/mL, 37° C., read-out: t1/2 Mouse
Provide the reading as a plain figure in h.

Examples with their reported half-life at 2 μM follow.
Fc1ccc(F)c([C@H]2CCCN2c2ccn3ncc(-c4nc5cc(Cl)c(OC(F)(F)F)cc5[nH]4)c3n2)c1 [Compound 92]; 4.12
Fc1ccc(F)c([C@H]2CCCN2c2ccn3ncc(-c4nc5ccc(OC(F)(F)F)cc5o4)c3n2)c1 [Compound 80]; 2.75
Fc1ccc(F)c([C@H]2CCCN2c2ccn3ncc(-c4nc5cnccc5[nH]4)c3n2)c1 [Compound 65]; 0.963

Field: next compound
Quick one: half-life at 2 μM for Fc1ccc(F)c([C@H]2CCCN2c2ccn3ncc(-c4nc5cc6c(cc5[nH]4)OCCO6)c3n2)c1 [Compound 96] ?
0.722
